# Measured On: human mu opioid receptor (Homo sapiens, UniProt P35372)
# Sequence (P35372 whole entry): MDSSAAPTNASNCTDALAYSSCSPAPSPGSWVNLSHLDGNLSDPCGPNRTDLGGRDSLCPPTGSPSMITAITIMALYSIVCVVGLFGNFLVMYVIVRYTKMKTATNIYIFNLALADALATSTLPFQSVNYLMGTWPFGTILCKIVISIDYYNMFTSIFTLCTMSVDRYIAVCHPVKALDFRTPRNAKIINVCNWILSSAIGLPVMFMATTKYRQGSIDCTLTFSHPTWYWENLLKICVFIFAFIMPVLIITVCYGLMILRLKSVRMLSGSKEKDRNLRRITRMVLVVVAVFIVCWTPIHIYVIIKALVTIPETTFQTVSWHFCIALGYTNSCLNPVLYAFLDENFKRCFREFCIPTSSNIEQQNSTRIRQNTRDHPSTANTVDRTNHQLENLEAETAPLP
Where a SMILES comes first, the peptide text is derived from it.
Measured Property: Ki
The answer consists of two parts: a number and, after it, its unit.

Q. Quick check: Ki of N[C@@H](Cc1ccc(O)cc1)C(=O)N[C@@H]1CCCCNC(=O)[C@H](Cc2ccccc2)NC(=O)[C@H](Cc2c[nH]c3ccccc23)NC1=O [ck1, Tyr-c[D-Lys-Trp-Phe], reference compound] (HELM PEPTIDE1{Y.[dK].W.F}$PEPTIDE1,PEPTIDE1,2:R3-4:R2$$$V2.0; bridges inferred) ?
A. 0.32 nM

Q. What Ki value was documented for this molecule, NC(=O)[C@@H]1CC(=O)NCCCC[C@@H](NC(=O)[C@@H](N)Cc2ccc(O)cc2)C(=O)N[C@@H](Cc2c[nH]c3ccccc23)C(=O)N[C@@H](Cc2ccccc2)C(=O)N1 [Compound 5, Tyr-c[D-Lys-Trp-Phe-Asp]-NH2] ?
A. 0.43 nM

###

# Measured On: cloned human delta opioid receptor (Homo sapiens)
# Sequence (P41143 whole entry): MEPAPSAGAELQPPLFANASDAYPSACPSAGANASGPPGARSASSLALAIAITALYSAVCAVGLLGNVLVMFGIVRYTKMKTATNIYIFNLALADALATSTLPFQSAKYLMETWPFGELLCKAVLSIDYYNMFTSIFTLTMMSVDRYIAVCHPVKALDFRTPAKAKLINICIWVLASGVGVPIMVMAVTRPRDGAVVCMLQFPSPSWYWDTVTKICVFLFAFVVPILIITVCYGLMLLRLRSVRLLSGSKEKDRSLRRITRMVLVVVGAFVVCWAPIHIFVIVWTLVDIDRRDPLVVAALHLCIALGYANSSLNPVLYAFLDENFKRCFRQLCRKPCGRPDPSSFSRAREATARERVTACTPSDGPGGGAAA
# Experiment Description: biochemical
pEC50: −log10 of the molar value.
Provide the reported pEC50 of each item.

Q. Any idea what its pEC50 is? The compound is NC(=O)[C@@H]1CCCCNC(=O)CC[C@@H](NC(=O)[C@@H](N)Cc2ccc(O)cc2)C(=O)N[C@@H](Cc2ccccc2)C(=O)N[C@@H](Cc2ccccc2)C(=O)N1 [Compound 2, Tyr-c[D-Glu-Phe-Phe-Lys]-NH2]
A. < 4.00

Q. Recorded pEC50 for NC(=O)[C@@H]1CC(=O)NCCCC[C@@H](NC(=O)[C@@H](N)Cc2ccc(O)cc2)C(=O)N[C@@H](Cc2c[nH]c3ccccc23)C(=O)N[C@@H](Cc2ccccc2)C(=O)N1 [Compound 5, Tyr-c[D-Lys-Trp-Phe-Asp]-NH2] , please?
A. < 4.00

Q. Suppose we examine the compound NC(=O)[C@@H]1CCC(=O)NCCCC[C@@H](NC(=O)[C@@H](N)Cc2ccc(O)cc2)C(=O)N[C@@H](Cc2c[nH]c3ccccc23)C(=O)N[C@@H](Cc2ccccc2)C(=O)N1 [Compound 1, Tyr-c[D-Lys-Trp-Phe-Glu]-NH2] ; what pEC50 value has been reported?
A. < 4.00
